assay: ATG_GLI_CIS: Attagene CIS-FACTORIAL HepG2 Assay for human Zinc Finger Protein GLI1 (AID 2282945); details: HepG2, Attagene cis-factorial reporter mRNA, GLI element; actives raise or lower the signal
Active and inactive are the calls of the source. The calls were made as follows: active = hit-call score of the fitted dose curve at least 0.9, where 1 is the maximum; inactive = score below 0.9.
Classes used: active, inactive

>  <COMPOUND STRUCTURE STRING>
Nc1ccc(N=Nc2ccccc2)cc1

>  <CLASS>
inactive

$$$$
>  <COMPOUND STRUCTURE STRING>
CCCSC(=O)N(CCC)CCC

>  <CLASS>
inactive

$$$$
>  <COMPOUND STRUCTURE STRING>
CS(=O)(=O)NC(=O)c1cc(Oc2ccc(C(F)(F)F)cc2Cl)ccc1[N+](=O)[O-]

>  <CLASS>
inactive

$$$$
>  <COMPOUND STRUCTURE STRING>
Cc1ccc(N)cc1

>  <CLASS>
inactive

$$$$
>  <COMPOUND STRUCTURE STRING>
Clc1ccc(C(c2ccc(Cl)cc2)C(Cl)Cl)cc1

>  <CLASS>
active

$$$$
>  <COMPOUND STRUCTURE STRING>
CO[C@@H]1[C@H](OC(=O)NC(=O)CCl)CC[C@]2(CO2)[C@H]1[C@@]1(C)O[C@@H]1CC=C(C)C

>  <CLASS>
inactive

$$$$
>  <COMPOUND STRUCTURE STRING>
CN(C)c1ccc(C(=O)c2ccc(N(C)C)cc2)cc1

>  <CLASS>
inactive

$$$$
>  <COMPOUND STRUCTURE STRING>
CC(C)COC(=O)c1ccccc1C(=O)OCC(C)C

>  <CLASS>
inactive

$$$$
>  <COMPOUND STRUCTURE STRING>
OCCCBr

>  <CLASS>
inactive

$$$$
>  <COMPOUND STRUCTURE STRING>
Nc1cc(Cl)cc(C(=O)O)c1Cl

>  <CLASS>
inactive

$$$$
>  <COMPOUND STRUCTURE STRING>
CC(C)N(Cc1ccccc1)C(=O)C(C)(C)C

>  <CLASS>
inactive

$$$$
>  <COMPOUND STRUCTURE STRING>
Cc1ccc(N)c(N)c1

>  <CLASS>
inactive

$$$$
>  <COMPOUND STRUCTURE STRING>
COC(=O)c1ccccc1N

>  <CLASS>
inactive

$$$$
>  <COMPOUND STRUCTURE STRING>
CC(C)(OOC(C)(C)c1ccccc1)c1ccccc1

>  <CLASS>
active

$$$$
>  <COMPOUND STRUCTURE STRING>
COc1cc(C=O)cc2c1[C@H](COC(N)=O)[C@]1(OC(C)=O)ON2C[C@H]2[C@@H]1N2C(C)=O

>  <CLASS>
inactive

$$$$

Values compiled from PubChem BioAssay (EPA / NIEHS).
